- EXPERIMENTAL_TARGET: Ribosomal protein S6 kinase alpha-4 (Homo sapiens);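 note: values are mean inhibition of MSK2, from GSK PKIS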
- APPLIED_CONDITIONS: at 0.1 µM
Measured inhibition of individual entries

{"COMPOUND_SMILES": "CCn1c(-c2nonc2N)nc2c(C#CCN)ncc(OCCCN)c21", "RESULT_UNITS": "%", "inhibition": 12.9}
{"COMPOUND_SMILES": "COc1cccc(-n2ncc3c(N/N=C/c4ccncc4)ncnc32)c1", "RESULT_UNITS": "%", "inhibition": 2.47}
{"COMPOUND_SMILES": "COc1cc2c(cc1Nc1nc(Nc3ccsc3C(N)=O)c3cc[nH]c3n1)N(C(=O)CN(C)C)CCC2", "RESULT_UNITS": "%", "inhibition": 2.53}
{"COMPOUND_SMILES": "Nc1nonc1-c1nc2cnccc2n1C1CCCCC1", "RESULT_UNITS": "%", "inhibition": 59.6}
{"COMPOUND_SMILES": "NC(=O)c1sc(-n2cnc3cc(C(F)(F)F)ccc32)cc1OCc1ccccc1Br", "RESULT_UNITS": "%", "inhibition": 2.32}
{"COMPOUND_SMILES": "COc1cccc(COc2cc(-n3cnc4ccccc43)sc2C(N)=O)c1", "RESULT_UNITS": "%", "inhibition": 1.36}
{"COMPOUND_SMILES": "CCn1c(-c2nonc2N)nc2c(C#CC(C)(C)O)ncc(OCC3CCNCC3)c21", "RESULT_UNITS": "%", "inhibition": 4.39}
{"COMPOUND_SMILES": "CCn1c(-c2nonc2N)nc2c(C#CC(C)(C)O)ncc(OC[C@@H]3CCCN3)c21", "RESULT_UNITS": "%", "inhibition": 3.2}
{"COMPOUND_SMILES": "CCn1c(-c2nonc2N)nc2c(C#CC(C)(C)O)nc(O[C@@H](CN)c3ccccc3)cc21", "RESULT_UNITS": "%", "inhibition": 15}
